target: pooled human IgG
value-kind: Enzyme Activity Endpoint Assay (purified): scIgG (ng/µL)
Please reply with the bare figure in ng/µL and do not write the unit itself.

Hello, please tell me recorded Enzyme Activity Endpoint Assay (purified): scIgG for this one: PRT-79 (protein) MANQEIRYSEVTPKTITSVWTKGVTPPAKFTQNEDVFHAPYVANQGWYDITKTFNGKDDLLCGAATAGNMLHWWFDQNKEQIEAYLKKHPEKQKIMFGDQELLDVRKVINTKDDQTNSELFNYFKDKAFPNLSARRLGVMPDLVLDMFINGYRLNVGKTQTTDVNRTYQDKDPRGGIFDAVFTRGDQSKLLTSRHDFKEKNLKEISDLIKQELTEGKALGLSHTYANVRINHVINLWGADFDSEGNLEAIYVTDSDSNASIGMKKYFVGVNSAGKVAISAKEIEEDNIGAQVLGLFTLSTGQDIWEQTN
38

Hello, please tell me recorded Enzyme Activity Endpoint Assay (purified): scIgG for this one: PRT-671 (protein) MQITTVWTKGVTPPTPEQFRNNNEDVFHAPYLPHQGWYDITKAFDGKDNLLCGAATAGNMLHWWFDQNKEEIEAYLKKYPEKQKIIFNNQELFDLRKAINTKDSQTNSQLFNYFRDKAFPNLSARQLGVMPDHVLDMFINGYYLNVFKTQSTDVNRPYQTRDKRGGIFDAVFNRGDQTTLLTERHDLYNKGLDDISTLIKQELSSGKALGLSHTYANVSISHVINLWGADFNAEGNLEAIYVTDSDDDASIGMKKYYVGKNASGHVRISAKKIEGENIGAQVLGLFTLSTGKDIWQKLSLEHHHHHH
864

Hello, please tell me recorded Enzyme Activity Endpoint Assay (purified): scIgG for this one: PRT-157 (protein) MANQEIRYSEVTPYHVTSVWTKGVTPPEDFTQGEDVFHAPYKANQGWYDITKTFNGKDDLLCGAATAGNMLHWWFDQNKDQIKRYLEEHPEKQKINFNGEQMFDVKEAIDTKNHQLDSKLFEYFKEKAFPYLSTKHLGVFPDHVIDMFINGYRLSLTNHGPTPVKEGSKDPRGGIFDAVFTRGDQSKLLTSRHDFKEKNLKEISDLIKKELTEGKALGLSHTYANVRINHVINLWGADFDSNGNLKAIYVTDSDSNASIGMKKYFVGVNSAGKVAISAKEIKEDNIGAQVLGLFTLSTGQDSWNQTN
0

Hello, please tell me recorded Enzyme Activity Endpoint Assay (purified): scIgG for this one: PRT-257 (protein) MVTSVWTKGVTPPTNFTYGEDVLHAPYVANQGWYDITKLFNGKDDLLCGAATAGNMLHWWFDQNKEQIENYLKKHPEKQKINFNGEQMFDVKEAIDTKDSQLDSKLFDYFKEKAFPYLSTKHLGVFPDHVIDMFINGYRLSLTNHGPTPVKRGSKDPRGGIFDAVFTRGDQSKLLTNRHDFKEKTLKEISDLIKQELTEGKALGISHTYANVRINHVINLWGADFDAEGNLEAIYVTDSDSNPSIGMKKYFVGVNSSGKVAISAKEIEEDNIGAQVLGLFTLSTGQDIWNQTN
0

Hello, please tell me recorded Enzyme Activity Endpoint Assay (purified): scIgG for this one: PRT-565 (protein) MANQEIRYSEATPSHITSVWTKGVTPPTQFIQNEDVLHAPYIANQGWYDITKTFNGKDDLLCGAATAGNMLHWWFDQNKEQIENYLKKHPEKQKINFNGEQMFDVKEAIDTKDSQTDSALFSYFKDKAFPYLSTKHLGVFPDHVIDMFINGYRLSLTNHGPTPVKRQTKDPRGGIFDAVFTRGDQSKLLTSRHDFKEKTLNEISQLIKQELTEGKALGLSHTYANVRINHVINLWGADFNAEGNLEAIYVTDSDSNASIGMKKYYVGVNSAGKVAISAKEIEGDNIGAQVLGLFTLSTGQDIWQQTNLEHHHHHH
0

Hello, please tell me recorded Enzyme Activity Endpoint Assay (purified): scIgG for this one: PRT-290 (protein) MVTSVWTKGVTPPADFTQGEDVFHAPYVANQGWYDITKTFNGKDDLLCGAATAGNMLHWWFDQNKEYIEAYLKKHPEKQKIMFGDQELLDVRKAINTKGSQKNSELFNYFRDKAFPNLSARRLGVMPDLVLDMFINGYYLNVTKTQTTDVNRTYQEKDKRGGIFDAVFTRGDQSKLLTSRHDFKEKGLKEISDLIKQELTEGKALGLSHTYANVRIGHVINLWGADFDSDGNLKAIYVTDSDSNASIGMKKYFVGVNSSGKVAISAKEIKEDNIGAQVLGLFTLSTGQDIWNQTN
0

Hello, please tell me recorded Enzyme Activity Endpoint Assay (purified): scIgG for this one: PRT-117 (protein) MRNATEAYAKEVPHTITSVWTKGVTPPTPEQFTYQNEDVFHAPYLANQGWYDITKTFNGKDNLLCGAATAGNMLHWWFDQNKEEIERYLSKHPEKQKIIFNNQELFDLKAAIDTKDSQTNSALFNYFRDKAFPNLSARQLGVMPDLVLDMFINGYYLNVFKTQSTDVNRPYQDKDKRGGIFDAVFTRGDQTTLLTARHDLKNKGLNDISDLIKQELTEGKALALSHTYANVSISHVINLWGADFNAEGNLEAIYVTDSDANASIGMKKYFVGVNTAGKVAISAKKIEGENIGAQVLGLFTLSSGKDIWEQLS
0

Hello, please tell me recorded Enzyme Activity Endpoint Assay (purified): scIgG for this one: PRT-126 (protein) MRNATEAYAKEVPHQITSVWTKGVTPLTPEQFRYNNEDVIHAPYLANQGWYDITKTFDGKDNLLCGAATAGNMLHWWFDQNKTEIEAYLSKHPEKQKIIFNNQELFDLKAAIDTKDSQTNSQLFNYFRDKAFPNLSARQLGVMPDLVLDMFINGYYLNVFKTQSTDVNRPYQDKDKRGGIFDAVFTRGDQTTLLTARHDLKNKGLNDISDLIKQELTEGKALALSHTYANVSISHVINLWGADFNAEGNLEAIYVTDSDSNASIGMKKYFVGVNAAGHVAISAKKIEGENIGAQVLGLFTLSSGKDIWQKLS
0
